Target: MEF2D and HDAC4 protein interactions (Homo sapiens (Human))
Experiment: Mammalian two-hybrid assay (GAL4-MEF2D / HDAC4-VP16 luciferase reporter)
Format: cell-based
Details: HeLa cells, test compound 10 μM overnight; ratio X/Y versus DMSO control, expressed in percentile; low = strong inhibition
Exercise: for every item that follows, state its recorded Relative Activity, I.
Give bare numbers.

Consider the reported Relative Activity, I for these compounds:
| COMPOUND | Relative Activity, I |
| --- | --- |
| Nc1ccccc1NC(=O)CCCCCNC(=O)c1ccc(Br)cc1 [CC5] | 3.6 |
| Nc1ccccc1NC(=O)CCCCCC(=O)Nc1ccccc1Br [CC6] | 62.6 |
| Nc1ccccc1NC(=O)CCCCCC(=O)Nc1cccc(O)c1 [CC2] | 4.7 |
| Nc1ccccc1NC(=O)CCCCCC(=O)NCc1cccnc1 [CC1] | 79.2 |
| Nc1ccccc1NC(=O)CCCCCC(=O)Nc1ccc(O)cc1 [CC3] | 5.4 |
| Nc1ccncc1NC(=O)CCCCCC(=O)Nc1cccc(Br)c1 [CC4] | 79.5 |

QUERY: Which measured Relative Activity, I value corresponds to Nc1ccccc1NC(=O)CCCCCC(=O)Nc1cncc(Br)c1 [CC7] ?
RESULT: 5.7

---

Test system: Nalm-6 leukemia cells
Assay: Inhibition of Nalm-6 leukemia cell growth (CellTiter-Glo)
Assay type: cell-based
Details: Homo sapiens, NALM-6; 72 hours treatment
Please go through the items and note down their pIC50.
One number for each entry, as −log10 of the molar value.

| COMPOUND | pIC50 |
| --- | --- |
| Nc1ccccc1NC(=O)CCCCCC(=O)Nc1ccccc1Br [CC6] | 5.69 |
| Nc1ccccc1NC(=O)CCCCCC(=O)Nc1cccc(O)c1 [CC2] | 5.84 |
| Nc1ccccc1NC(=O)CCCCCNC(=O)c1ccc(Br)cc1 [CC5] | 5.86 |
| Nc1ccccc1NC(=O)CCCCCC(=O)Nc1ccc(O)cc1 [CC3] | 5.58 |

QUERY: // returns reported pIC50 for input Nc1ccccc1NC(=O)CCCCCC(=O)Nc1cncc(Br)c1 [CC7]
RESULT: 5.87

---

For each of the molecules below, state its IC50.
Molecular target: MEF2D and HDAC4 protein interactions (Homo sapiens (Human), UniProt Q14814)
Sequence (Q14814 whole entry, species assumed, the tested form may be a part): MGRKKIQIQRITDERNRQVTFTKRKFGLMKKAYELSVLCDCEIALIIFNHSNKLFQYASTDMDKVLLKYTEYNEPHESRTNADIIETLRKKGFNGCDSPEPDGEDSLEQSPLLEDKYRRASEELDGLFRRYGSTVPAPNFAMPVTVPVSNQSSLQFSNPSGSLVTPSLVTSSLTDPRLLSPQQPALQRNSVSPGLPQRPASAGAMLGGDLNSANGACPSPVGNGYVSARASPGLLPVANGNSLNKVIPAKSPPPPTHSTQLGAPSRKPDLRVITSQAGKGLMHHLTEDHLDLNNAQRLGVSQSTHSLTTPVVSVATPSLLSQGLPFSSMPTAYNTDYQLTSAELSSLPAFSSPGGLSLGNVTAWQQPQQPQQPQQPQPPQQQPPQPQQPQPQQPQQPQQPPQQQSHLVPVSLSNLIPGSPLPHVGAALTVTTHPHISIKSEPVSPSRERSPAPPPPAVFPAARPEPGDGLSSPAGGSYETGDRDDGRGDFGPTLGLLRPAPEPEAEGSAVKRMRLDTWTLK
Experiment: Mammalian two-hybrid assay (GAL4-MEF2D / HDAC4-VP16 luciferase reporter)
Settings: HeLa cells; concentration when X/Y equals 50
Give bare numbers, in nM.

| SMILES STRUCTURE | MEASURED PROPERTY | EXPERIMENTAL RESULT |
| --- | --- | --- |
| Nc1ccccc1NC(=O)CCCCCNC(=O)c1ccc(Br)cc1 | IC50 | 70 |
| Nc1ccccc1NC(=O)CCCCCC(=O)Nc1cncc(Br)c1 | IC50 | 110 |
| Nc1ccccc1NC(=O)CCCCCC(=O)Nc1cccc(O)c1 | IC50 | 90 |

Next up:
QUERY: Please report the recorded IC50 for Nc1ccccc1NC(=O)CCCCCC(=O)Nc1ccc(O)cc1 .
RESULT: 100
